Assign growth inhibition to each entry below.
Assay: NCI Yeast Anticancer Drug Screen. Data for the mgt1 strain (AID 153)
Details: S. cerevisiae mgt1 mutant growth inhibition; at 33.0 µM; hits give high values
This is part of a sample that, as a whole, favours compounds with a hit. Of some 79,000 tested, about 15% had one in any assay.
One number for each entry, in %.

Please review the entries below; each comes with its answer.
INSERT INTO assay_data (compound, test_result) VALUES
  ('O=C(Nn1c(-c2ccccc2)nc2ccccc2c1=O)c1ccc(CS)cc1', 23),
  ('Brc1ccc(B2Nc3ccccc3N2)cc1', 25),
  ('[N-]=[N+]=NC1(c2ccccc2)C(=O)Nc2ccccc2C1=O (stereo unspecified)', 2),
  ('O=C1C=CC(=Nc2cccc3c2-c2ccccc2C3=O)O1', 99),
  ('Cc1ccccc1NC(=O)c1c(C)oc2c1C(=O)c1ccccc1C2=O', 57),
  ('O=C(O)c1c2ccc(Cl)cc2nc2[nH]c(=O)[nH]c(=O)c12', -5),
  ('CC1CN(/N=C\c2ccc([N+](=O)[O-])o2)C(=O)O1 (stereo unspecified)', -1),
  ('Nc1cc2c(cc1N)-c1ccccc1C2=O', 1);

For each of the compounds below, state growth inhibition.
1. O=C(NCCCCN(CCCNC(=O)C(F)(F)F)Cc1ccccc1)C(F)(F)F
2. OC(CC(O)(C(F)(F)F)C(F)(F)F)c1ccc(C(O)CC(O)(C(F)(F)F)C(F)(F)F)cc1 (stereo unspecified)
3. Oc1ccc(C2(c3ccc(O)cc3)CCCC2)cc1

stdout:
1: 26; 2: 99; 3: 97
